Source: ChEMBL document CHEMBL3132764

Assay: Cytotoxicity against mouse J774A1 cells after 48 hrs by MTT assay
Type: cell-based, J774.A1
readout.label: CC50 at 48 h (µM)

INSERT INTO assay_data (compound, readout_label, unit_tag, numeric_result) VALUES
  ('COc1ccc(C(Nc2ccccc2)P(=O)(OC)OC)cc1 (racemic)', 'CC50 at 48 h', 'µM', 5.5),
  ('COc1cc(C(Nc2ccccc2)P(=O)(OC)OC)cc(OC)c1O (racemic)', 'CC50 at 48 h', 'µM', 10),
  ('COc1ccccc1C(Nc1ccccc1)P(=O)(OC)OC (racemic)', 'CC50 at 48 h', 'µM', 6),
  ('COP(=O)(OC)C(Nc1ccccc1)c1ccccc1F (racemic)', 'CC50 at 48 h', 'µM', 12),
  ('COP(=O)(OC)C(Nc1ccccc1)c1ccc([N+](=O)[O-])cc1 (racemic)', 'CC50 at 48 h', 'µM', 5);

====

Test: Cytotoxicity against mouse J774A1 cells after 48 hrs by MTT assay
Type: cell-based, J774.A1
Overview of recorded CC50 at 48 h for various molecules
readout.label: CC50 at 48 h (µM)

INSERT INTO results (molecule, sign_qualifier, numeric_result) VALUES
  ('COc1ccc(C(Nc2nc3c(C)cccc3s2)P(=O)(OC)OC)cc1 (racemic)', '=', 8.5),
  ('COP(=O)(OC)C(Nc1ccccc1)c1ccccc1Br (racemic)', '=', 5.5),
  ('COP(=O)(OC)C(Nc1ccccc1)c1ccc2ccccc2c1 (racemic)', '=', 6.1),
  ('COP(=O)(OC)C(Nc1ccccc1)c1ccc(N(C)C)cc1 (racemic)', '=', 5),
  ('COP(=O)(OC)C(Nc1ccccc1)c1ccccc1O (racemic)', '=', 5),
  ('COP(=O)(OC)C(Nc1ccccc1)C1CCCCC1 (racemic)', '=', 14),
  ('COc1ccc(C(Nc2cc(C)on2)P(=O)(OC)OC)cc1 (racemic)', '=', 7.5),
  ('COP(=O)(OC)C(/C=C/c1ccccc1)Nc1ccccc1 (racemic)', '=', 8),
  ('COP(=O)(OC)C(Nc1ccccc1)c1cccc2ccccc12 (racemic)', '>', 100),
  ('COP(=O)(OC)C(Nc1ccccc1)c1cccc(O)c1 (racemic)', '>', 100),
  ('COP(=O)(OC)C(C)(Nc1ccccc1)c1ccccc1 (racemic)', '=', 6),
  ('COP(=O)(OC)C(Nc1ccccc1)c1ccc(Br)cc1 (racemic)', '=', 6.5),
  ('C[C@@H]1[C@H](O)[C@@H](C)/C=C/C=C/C=C/C=C/C=C/C=C/C=C/[C@H](O[C@@H]2O[C@H](C)[C@@H](O)[C@H](N)[C@@H]2O)C[C@@H]2O[C@](O)(C[C@@H](O)C[C@@H](O)[C@H](O)CC[C@@H](O)C[C@@H](O)CC(=O)O[C@H]1C)C[C@H](O)[C@H]2C(=O)O [AMPHOTERICIN B]', '=', 7),
  ('COP(=O)(OC)C(Nc1ccccc1)c1ccc(Cl)cc1 (racemic)', '=', 39),
  ('COP(=O)(OC)C1(Nc2ccccc2)CCCCC1', '=', 7.5),
  ('COc1cc(C(Nc2ccccc2)P(=O)(OC)OC)ccc1O (racemic)', '=', 5),
  ('COP(=O)(OC)C(Nc1ccccc1)c1ccc(O)cc1 (racemic)', '=', 6.5),
  ('COc1ccc(C(Nc2ccccc2)P(=O)(OC)OC)cc1O (racemic)', '=', 31),
  ('COP(=O)(OC)C(Nc1ccccc1)c1ccccc1 (racemic)', '=', 12.5),
  ('COP(=O)(OC)C(Nc1ccccc1)c1ccccn1 (racemic)', '=', 5);
